- TARGET_OR_TEST_SYSTEM: T1, 4H1385-AA
- T1 chain: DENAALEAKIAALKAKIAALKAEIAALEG
- PROTOCOL_DETAILS: two-hybrid library CCmax;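 further: natural log of median RNA to DNA barcode read ratio; higher means stronger binding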
- CONDITION_INFO: mean of both orientations
Kindly apply the following: met if interaction score is less than 2, not met in every other case.

{"BINDER": "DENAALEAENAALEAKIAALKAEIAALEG [4H1193-AA]", "CATEGORY": "met"}

Request: State whether 2 exceeds interaction score recorded for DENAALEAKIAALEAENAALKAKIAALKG [4H1310-AA] .
Result: met

Request: Please check: interaction score for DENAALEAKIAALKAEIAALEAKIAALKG [4H1350-AA] , strictly under 2 or not?
Result: not met

Request: Would you kindly verify if interaction score of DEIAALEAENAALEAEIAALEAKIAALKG [4H134-AA] is strictly less than 2?
Result: not met

Request: Determine if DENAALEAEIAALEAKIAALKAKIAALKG [4H1070-AA] shows interaction score strictly lower than 2.
Result: met

Cited source for all entries: paper PMC10397247
